Values from ChEMBL document CHEMBL2375339

target: Acetylcholinesterase (Electrophorus electricus)
pIC50: −log10 of the molar value.
# binarize pIC50: threshold 7 inclusive, high side 1 (yes), low side 0 (no)

Answered cases to consult:
                               query_smiles    group
0  C[N+](C)(C)CCC(=O)Nc1ccc2nc3c4[nH]c5ccccc5c4ccn3c(=O)c2c1   0 (no)
1  O=C(CC[n+]1ccccc1)Nc1ccc2nc3c4[nH]c5ccccc5c4ccn3c(=O)c2c1  1 (yes)

With those in mind, consider the next compound.
Ask | Identify whether the reported pIC50 of the following compound is 7 or greater: O=C(CCC[n+]1ccccc1)Nc1ccc2nc3c4[nH]c5ccccc5c4ccn3c(=O)c2c1
Reply | 1 (yes)

* * *

target: UniProtKB O42275
observed.property: log10 IC50 (log10 of the value in nM)
log10 IC50, nM

In [3]: df
Out[3]:
                               query_smiles  recorded_value
0  O=C(CC[n+]1cccc(F)c1)Nc1ccc2nc3c4[nH]c5ccccc5c4ccn3c(=O)c2c1            0.32

Moving on to the next compound.
The compound listed as O=C(Cc1ccccc1)Nc1ccc2nc3c4[nH]c5ccccc5c4ccn3c(=O)c2c1 shows log10 IC50 equal to 2.06

* * *

Record type: log10 of IC50 measurement. Applies to: Cholinesterase (Equus caballus, UniProt P81908)
log10 IC50, µM

Example molecules with recorded log10 of IC50:
                               query_smiles                           target_of_assay  recorded_value
0  Cn1cc[n+](CCCC(=O)Nc2ccc3nc4c5[nH]c6ccccc6c5ccn4c(=O)c3c2)c1  Cholinesterase (Equus caballus, UniProt P81908)            0.91
1  O=C(C[n+]1ccccc1)Nc1ccc2nc3c4[nH]c5ccccc5c4ccn3c(=O)c2c1  Cholinesterase (Equus caballus, UniProt P81908)            0.39
2  O=C(CN1CCOCC1)Nc1ccc2nc3c4[nH]c5ccccc5c4ccn3c(=O)c2c1  Cholinesterase (Equus caballus, UniProt P81908)            1.45
3  O=C(C[n+]1cccc(F)c1)Nc1ccc2nc3c4[nH]c5ccccc5c4ccn3c(=O)c2c1  Cholinesterase (Equus caballus, UniProt P81908)            0.27
4  CN(C)CC(=O)Nc1ccc2nc3c4[nH]c5ccccc5c4ccn3c(=O)c2c1  Cholinesterase (Equus caballus, UniProt P81908)            1.42

Bench note, Cholinesterase (Equus caballus, UniProt P81908): entry O=C(CCCN1CCCC1)Nc1ccc2nc3c4[nH]c5ccccc5c4ccn3c(=O)c2c1 , its log10 of IC50 = 1.27

Bench note, Cholinesterase (Equus caballus, UniProt P81908): entry O=C(CCNc1ccccc1)Nc1ccc2nc3c4[nH]c5ccccc5c4ccn3c(=O)c2c1 , its log10 of IC50 = 1.44

Bench note, Cholinesterase (Equus caballus, UniProt P81908): entry CN(C)CCC(=O)Nc1ccc2nc3c4[nH]c5ccccc5c4ccn3c(=O)c2c1 , its log10 of IC50 = 1.33

* * *

The following compounds are shown together with reported Ratio values.
molecular target: Acetylcholinesterase (Homo sapiens) (UniProt P22303); assay: Ratio of compound activity to tacrine activity for inhibition of acetylcholinesterase (unknown origin)-induced amyloid beta(1 to 42) aggregation
Sequence (P22303 whole entry): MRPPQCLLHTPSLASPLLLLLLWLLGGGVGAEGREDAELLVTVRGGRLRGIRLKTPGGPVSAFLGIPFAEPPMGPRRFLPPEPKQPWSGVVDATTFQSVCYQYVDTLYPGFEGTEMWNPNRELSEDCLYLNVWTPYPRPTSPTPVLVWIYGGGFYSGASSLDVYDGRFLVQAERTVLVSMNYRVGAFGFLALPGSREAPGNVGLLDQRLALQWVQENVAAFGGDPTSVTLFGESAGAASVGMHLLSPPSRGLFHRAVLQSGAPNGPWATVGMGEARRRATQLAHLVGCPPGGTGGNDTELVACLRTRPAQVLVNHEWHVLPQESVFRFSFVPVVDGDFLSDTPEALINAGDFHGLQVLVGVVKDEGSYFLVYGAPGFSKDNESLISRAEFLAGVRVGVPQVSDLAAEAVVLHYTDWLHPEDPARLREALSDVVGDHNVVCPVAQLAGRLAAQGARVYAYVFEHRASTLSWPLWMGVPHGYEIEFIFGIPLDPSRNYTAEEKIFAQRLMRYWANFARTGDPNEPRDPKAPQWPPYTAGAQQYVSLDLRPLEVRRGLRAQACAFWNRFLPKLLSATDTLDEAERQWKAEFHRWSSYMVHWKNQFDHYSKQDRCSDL
Give only the figure.

Example compounds with recorded Ratio:
>>> print(df.to_string())
                               query_smiles  recorded_value
0  O=C(C[n+]1ccccc1)Nc1ccc2nc3c4[nH]c5ccccc5c4ccn3c(=O)c2c1            15.3
1  O=C(CCN1CCCCC1)Nc1ccc2nc3c4[nH]c5ccccc5c4ccn3c(=O)c2c1            15.3

The compound listed as O=C(C[n+]1cccc(F)c1)Nc1ccc2nc3c4[nH]c5ccccc5c4ccn3c(=O)c2c1 shows Ratio equal to 15.3

The compound listed as O=C(CCC[n+]1ccccc1)Nc1ccc2nc3c4[nH]c5ccccc5c4ccn3c(=O)c2c1 shows Ratio equal to 15.3

The compound listed as Cn1cc[n+](CC(=O)Nc2ccc3nc4c5[nH]c6ccccc6c5ccn4c(=O)c3c2)c1 shows Ratio equal to 15.3

The compound listed as O=C(CN1CCCCC1)Nc1ccc2nc3c4[nH]c5ccccc5c4ccn3c(=O)c2c1 shows Ratio equal to 15.3

* * *

The following compounds are shown together with reported pIC50 values.
molecular target: Acetylcholinesterase (Electrophorus electricus, UniProt O42275)
Sequence (O42275 whole entry): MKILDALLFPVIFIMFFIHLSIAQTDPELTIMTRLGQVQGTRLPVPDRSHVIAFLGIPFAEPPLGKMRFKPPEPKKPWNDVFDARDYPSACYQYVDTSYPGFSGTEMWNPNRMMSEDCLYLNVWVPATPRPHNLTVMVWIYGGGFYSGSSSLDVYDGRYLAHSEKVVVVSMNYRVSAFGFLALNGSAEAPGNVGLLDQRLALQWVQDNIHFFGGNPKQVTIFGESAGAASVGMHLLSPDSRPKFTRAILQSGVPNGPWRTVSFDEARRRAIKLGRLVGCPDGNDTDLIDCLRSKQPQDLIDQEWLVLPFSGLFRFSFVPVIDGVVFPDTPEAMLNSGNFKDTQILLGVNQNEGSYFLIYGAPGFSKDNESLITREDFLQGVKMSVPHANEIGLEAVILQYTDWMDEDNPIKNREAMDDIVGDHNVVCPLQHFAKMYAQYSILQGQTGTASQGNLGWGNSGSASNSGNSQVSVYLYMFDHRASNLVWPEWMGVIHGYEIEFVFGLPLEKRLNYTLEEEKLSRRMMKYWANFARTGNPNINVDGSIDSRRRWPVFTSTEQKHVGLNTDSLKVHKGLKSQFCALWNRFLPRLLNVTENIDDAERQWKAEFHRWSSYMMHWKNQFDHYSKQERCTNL
Please note pIC50 is a logarithmic value: minus log10 of concentration in mol/L. Answer with that number alone.

Example compounds with recorded pIC50:
>>> df
                               query_smiles  recorded_value
0  O=C(CCCc1ccccc1)Nc1ccc2nc3c4[nH]c5ccccc5c4ccn3c(=O)c2c1            6.87
1  O=C(C[n+]1ccccc1)Nc1ccc2nc3c4[nH]c5ccccc5c4ccn3c(=O)c2c1            9.10
2  O=C(CCN1CCCC1)Nc1ccc2nc3c4[nH]c5ccccc5c4ccn3c(=O)c2c1            7.86
3  O=C(COc1cccnc1)Nc1ccc2nc3c4[nH]c5ccccc5c4ccn3c(=O)c2c1            8.51
4  O=C(CCNc1ccccc1)Nc1ccc2nc3c4[nH]c5ccccc5c4ccn3c(=O)c2c1            7.06
5  O=C(CCc1ccccc1)Nc1ccc2nc3c4[nH]c5ccccc5c4ccn3c(=O)c2c1            6.96
6  CCN(CC)CCC(=O)Nc1ccc2nc3c4[nH]c5ccccc5c4ccn3c(=O)c2c1            7.19
7  O=C(CCN1CCOCC1)Nc1ccc2nc3c4[nH]c5ccccc5c4ccn3c(=O)c2c1            7.10

The compound listed as O=C(CCN1CCCCC1)Nc1ccc2nc3c4[nH]c5ccccc5c4ccn3c(=O)c2c1 shows pIC50 equal to 7.29

The compound listed as Cn1cc[n+](CC(=O)Nc2ccc3nc4c5[nH]c6ccccc6c5ccn4c(=O)c3c2)c1 shows pIC50 equal to 8.10

The compound listed as CCN(CC)CC(=O)Nc1ccc2nc3c4[nH]c5ccccc5c4ccn3c(=O)c2c1 shows pIC50 equal to 7.15

The compound listed as O=C(CN1CCCC1)Nc1ccc2nc3c4[nH]c5ccccc5c4ccn3c(=O)c2c1 shows pIC50 equal to 7.23

The compound listed as O=C(CN1CCOCC1)Nc1ccc2nc3c4[nH]c5ccccc5c4ccn3c(=O)c2c1 shows pIC50 equal to 7.06

The compound listed as O=C(CNc1ccccc1)Nc1ccc2nc3c4[nH]c5ccccc5c4ccn3c(=O)c2c1 shows pIC50 equal to 7.11

The compound listed as O=C(C[n+]1cccc(F)c1)Nc1ccc2nc3c4[nH]c5ccccc5c4ccn3c(=O)c2c1 shows pIC50 equal to 9.22

The compound listed as CN(C)CCC(=O)Nc1ccc2nc3c4[nH]c5ccccc5c4ccn3c(=O)c2c1 shows pIC50 equal to 7.25

The compound listed as C[N+]1(CCC(=O)Nc2ccc3nc4c5[nH]c6ccccc6c5ccn4c(=O)c3c2)CCCC1 shows pIC50 equal to 6.86

The compound listed as O=C(CN1CCCCC1)Nc1ccc2nc3c4[nH]c5ccccc5c4ccn3c(=O)c2c1 shows pIC50 equal to 7.15

The compound listed as Cn1cc[n+](CCC(=O)Nc2ccc3nc4c5[nH]c6ccccc6c5ccn4c(=O)c3c2)c1 shows pIC50 equal to 8.03

* * *

target: Cholinesterase (Equus caballus)
Sequence (P81908 whole entry): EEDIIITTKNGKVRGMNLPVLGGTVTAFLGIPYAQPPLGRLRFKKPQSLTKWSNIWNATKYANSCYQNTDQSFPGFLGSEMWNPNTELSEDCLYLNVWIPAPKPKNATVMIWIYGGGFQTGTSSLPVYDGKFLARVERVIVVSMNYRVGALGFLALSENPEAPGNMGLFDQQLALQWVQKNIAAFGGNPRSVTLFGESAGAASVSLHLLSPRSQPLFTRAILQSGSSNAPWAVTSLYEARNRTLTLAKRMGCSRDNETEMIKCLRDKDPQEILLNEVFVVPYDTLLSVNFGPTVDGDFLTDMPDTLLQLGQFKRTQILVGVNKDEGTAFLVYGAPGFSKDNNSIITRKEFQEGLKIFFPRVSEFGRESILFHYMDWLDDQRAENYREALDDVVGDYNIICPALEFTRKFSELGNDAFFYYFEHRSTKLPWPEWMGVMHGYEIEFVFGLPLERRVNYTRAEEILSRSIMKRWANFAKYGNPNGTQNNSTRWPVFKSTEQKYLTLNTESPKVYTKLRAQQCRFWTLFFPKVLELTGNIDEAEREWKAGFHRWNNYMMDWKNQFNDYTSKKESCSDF
observed.property: IC50 (µM)
Give the number; µM is assumed, so skip it.

>>> print(df.to_string())
                               query_smiles  observed_property  recorded_value
0  C[N+](C)(C)CCC(=O)Nc1ccc2nc3c4[nH]c5ccccc5c4ccn3c(=O)c2c1               IC50            37.2

The molecule listed as O=C(CCC[n+]1ccccc1)Nc1ccc2nc3c4[nH]c5ccccc5c4ccn3c(=O)c2c1 shows IC50 equal to 4.16

The molecule listed as O=C(CCOc1cccnc1)Nc1ccc2nc3c4[nH]c5ccccc5c4ccn3c(=O)c2c1 shows IC50 equal to 6.43

The molecule listed as O=C(CCc1ccccc1)Nc1ccc2nc3c4[nH]c5ccccc5c4ccn3c(=O)c2c1 shows IC50 equal to 26.1

* * *

Record type: IC50 measurement. Applies to: Acetylcholinesterase (Electrophorus electricus, UniProt O42275)
Give the number; nM is assumed, so skip it.

>>> df
                               query_smiles                           target_of_assay  recorded_value
0  CN(C)CC(=O)Nc1ccc2nc3c4[nH]c5ccccc5c4ccn3c(=O)c2c1  Acetylcholinesterase (Electrophorus electricus, UniProt O42275)            70.1
1  O=C(CCCN1CCCC1)Nc1ccc2nc3c4[nH]c5ccccc5c4ccn3c(=O)c2c1  Acetylcholinesterase (Electrophorus electricus, UniProt O42275)            84.6

Moving on to the next molecule.
Bench note, Acetylcholinesterase (Electrophorus electricus, UniProt O42275): entry CN1CCN(CC(=O)Nc2ccc3nc4c5[nH]c6ccccc6c5ccn4c(=O)c3c2)CC1 , its IC50 = 158
